Where do these numbers come from? They come from ChEMBL document CHEMBL1155506.

tested_target: 5-hydroxytryptamine receptor 2B (Homo sapiens)
Sequence (P41595 whole entry): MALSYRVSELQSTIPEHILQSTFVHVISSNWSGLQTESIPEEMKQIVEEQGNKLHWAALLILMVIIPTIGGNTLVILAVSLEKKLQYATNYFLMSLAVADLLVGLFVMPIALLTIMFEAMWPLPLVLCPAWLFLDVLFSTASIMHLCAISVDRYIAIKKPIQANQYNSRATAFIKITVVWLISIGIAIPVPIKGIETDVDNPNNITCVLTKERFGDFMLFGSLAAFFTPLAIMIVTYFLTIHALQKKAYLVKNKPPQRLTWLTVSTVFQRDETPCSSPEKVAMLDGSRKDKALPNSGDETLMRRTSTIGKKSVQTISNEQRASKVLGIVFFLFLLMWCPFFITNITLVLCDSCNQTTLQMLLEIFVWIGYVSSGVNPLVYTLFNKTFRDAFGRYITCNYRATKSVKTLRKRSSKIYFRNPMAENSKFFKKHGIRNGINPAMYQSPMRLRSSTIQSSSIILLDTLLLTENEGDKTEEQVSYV
protocol_details: Displacement of [125I]DOI from human recombinant 5HT2B receptor expressed in HEK293 cells by scintillation counting
pKi: −log10 of the molar value.
experimental_endpoint: pKi

Need pKi of `COc1cccc(C(=O)Nc2ccc(OCCN3CCOCC3)c(-c3ccnn3C)c2)c1` , thanks. < 5.00

* * *

protocol_details: Half life in dog at 10 mg/kg, po by HPLC/MS/MS analysis
Format: ADME, organism-based, Canis lupus familiaris
Parameters: dose 10 mg/kg, route oral
condition_parameters: in vivo
experimental_endpoint: half-life (min)
Please give a number only; it is taken to be in min.

Any idea what half-life was measured for COc1cccc(C(=O)Nc2ccc(OCCN3CCOCC3)c(-c3ccnn3C)c2)c1 [TEMANOGREL] ? 54

* * *

protocol_details: Volume of distribution at steady state in dog at 2 mg/kg, iv after 24 hrs by HPLC/MS/MS analysis
Type: ADME, organism-based, Canis lupus familiaris
Set-up: dose 2 mg/kg, route intravenous
condition_parameters: in vivo, read-out: Vdss
experimental_endpoint: Vd (L/kg)
# unit: L/kg | format: bare number

Give its Vd value. Item: COc1cccc(C(=O)Nc2ccc(OCCN3CCOCC3)c(-c3ccnn3C)c2)c1 [TEMANOGREL] 1.3

* * *

tested_target: hERG (KCNH2) (Homo sapiens)
protocol_details: Inhibition of human ERG at 3 uM by patch clamp assay
experimental_endpoint: inhibition at 3 µM (%)
Write the value in % as a bare number.

Known inhibition at 3 µM results, listed for orientation:
Cn1ncc(Cl)c1-c1cc(NC(=O)c2cccc(C(F)(F)F)c2)ccc1OCCN1CCNC(=O)C1 | 53
COc1cccc(C(=O)Nc2ccc(OCCN)c(-c3ccnn3C)c2)c1 | 22
Cn1nccc1-c1cc(NC(=O)c2cccc(F)c2)ccc1OCCN1CCOCC1 | 43
CC(=O)N1CCN(CCOc2ccc(NC(=O)c3cccc(F)c3)cc2-c2c(Cl)cnn2C)CC1 | 43

Shifting focus to the molecule that follows.
# inhibition at 3 µM lookup, item `Cn1ncc(Cl)c1-c1cc(NC(=O)c2cccc(F)c2)ccc1OCCN1CCOCC1` 46

* * *

protocol_details: Cmax in monkey at 10 mg/kg, po after 24 hrs by HPLC/MS/MS assay
Type: ADME, organism-based, Macaca mulatta
Parameters: dose 10 mg/kg, route oral
condition_parameters: rhesus monkey, in vivo
experimental_endpoint: Cmax (ng/mL)
Quick note: give the figure in ng/mL, leave out the unit.

What value of Cmax has been recorded for this entry: `COc1cccc(C(=O)Nc2ccc(OCCN3CCOCC3)c(-c3ccnn3C)c2)c1` 1460

* * *

Reported Ki by item:
tested_target: 5-hydroxytryptamine receptor 2C (Homo sapiens, UniProt P28335)
Sequence (P28335 whole entry): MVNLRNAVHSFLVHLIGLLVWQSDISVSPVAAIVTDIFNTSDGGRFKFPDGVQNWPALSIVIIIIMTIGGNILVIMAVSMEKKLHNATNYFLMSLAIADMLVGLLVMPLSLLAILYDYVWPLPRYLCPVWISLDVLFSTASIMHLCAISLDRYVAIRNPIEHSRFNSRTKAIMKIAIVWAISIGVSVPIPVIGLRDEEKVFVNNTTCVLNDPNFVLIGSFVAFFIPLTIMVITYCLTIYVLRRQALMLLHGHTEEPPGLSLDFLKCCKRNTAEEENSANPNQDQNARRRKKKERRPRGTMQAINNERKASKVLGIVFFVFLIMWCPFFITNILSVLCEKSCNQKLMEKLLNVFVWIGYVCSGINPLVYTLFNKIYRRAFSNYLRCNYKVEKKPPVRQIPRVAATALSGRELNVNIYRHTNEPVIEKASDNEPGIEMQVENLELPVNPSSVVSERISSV
protocol_details: Displacement of [125I]DOI from human recombinant 5HT2C receptor expressed in HEK293 cells by scintillation counting
Numbers only here, please. The scale is µM.

# annotated cases, reported Ki shown
CC(=O)N1CCN(CCOc2ccc(NC(=O)c3cccc(F)c3)cc2-c2c(Cl)cnn2C)CC1 | 8.6
COc1cccc(C(=O)Nc2ccc(OCCN3CCN(C(N)=O)CC3)c(-c3ccnn3C)c2)c1 | 5.89
Cn1ncc(Cl)c1-c1cc(NC(=O)c2cccc(F)c2)ccc1OCCN1CCOCC1 | 3.38
Cn1nccc1-c1cc(NC(=O)c2ccc(C(F)(F)F)cc2)ccc1OCCN1CCOCC1 | 5.9
COc1cccc(C(=O)Nc2ccc(OCCN)c(-c3ccnn3C)c2)c1 | 2.35
Cn1nccc1-c1cc(NC(=O)c2cccc(C(F)(F)F)c2)ccc1OCCN1CCCC1 | 1.14

I have this compound here, `Cn1nccc1-c1cc(NC(=O)c2cccc(C(F)(F)F)c2)ccc1OCCN1CCC(F)(F)C1` , and I need its recorded Ki. 9.25

May I ask what Ki has been recorded for `Cn1nccc1-c1cc(NC(=O)c2ccc(C(F)(F)F)cc2)ccc1OCCN1CCCC1` ? 0.225

Entry `COc1cccc(C(=O)Nc2ccc(OCCNCCO)c(-c3ccnn3C)c2)c1` : reported Ki = ? 5.87

Record request: Ki value, item `CC(=O)N1CCN(CCOc2ccc(NC(=O)c3cccc(C(F)(F)F)c3)cc2-c2ccnn2C)CC1` 5.61

* * *

protocol_details: Bioavailability in monkey at 2 mg/kg, iv after 24 hrs by HPLC/MS/MS analysis
Assay type: ADME, organism-based, Macaca mulatta
condition_parameters: rhesus monkey, in vivo
experimental_endpoint: bioavailability (%)
The figure you give is taken to be in %; do not add the unit.

What measured bioavailability goes with `COc1cccc(C(=O)Nc2ccc(OCCN3CCOCC3)c(-c3ccnn3C)c2)c1` ? 16

* * *

Cmax values by entry
protocol_details: Cmax in Sprague-Dawley rat at 10 mg/kg, po after 24 hrs by HPLC/MS/MS assay
Format: ADME, organism-based
Design: dose 10 mg/kg, route oral
condition_parameters: in vivo
// return the numeric value with its unit appended

Some solved cases for reference:
Cn1nccc1-c1cc(NC(=O)c2ccc(F)cc2F)ccc1OCCN1CCOCC1 | 56 ng/mL
COc1cccc(C(=O)Nc2ccc(OCCN3CCOCC3)c(-c3ccnn3C)c2)c1 [TEMANOGREL] | 58 ng/mL
Cn1nccc1-c1cc(NC(=O)c2cccc(C(F)(F)F)c2)ccc1OCCN1CCOCC1 | 202 ng/mL

# query: Cmax of entry `Cn1nccc1-c1cc(NC(=O)c2ccc(C(F)(F)F)cc2)ccc1OCCN1CCCC1` 453 ng/mL

* * *

tested_target: hERG (KCNH2) (Homo sapiens, UniProt Q12809)
Sequence (Q12809 whole entry): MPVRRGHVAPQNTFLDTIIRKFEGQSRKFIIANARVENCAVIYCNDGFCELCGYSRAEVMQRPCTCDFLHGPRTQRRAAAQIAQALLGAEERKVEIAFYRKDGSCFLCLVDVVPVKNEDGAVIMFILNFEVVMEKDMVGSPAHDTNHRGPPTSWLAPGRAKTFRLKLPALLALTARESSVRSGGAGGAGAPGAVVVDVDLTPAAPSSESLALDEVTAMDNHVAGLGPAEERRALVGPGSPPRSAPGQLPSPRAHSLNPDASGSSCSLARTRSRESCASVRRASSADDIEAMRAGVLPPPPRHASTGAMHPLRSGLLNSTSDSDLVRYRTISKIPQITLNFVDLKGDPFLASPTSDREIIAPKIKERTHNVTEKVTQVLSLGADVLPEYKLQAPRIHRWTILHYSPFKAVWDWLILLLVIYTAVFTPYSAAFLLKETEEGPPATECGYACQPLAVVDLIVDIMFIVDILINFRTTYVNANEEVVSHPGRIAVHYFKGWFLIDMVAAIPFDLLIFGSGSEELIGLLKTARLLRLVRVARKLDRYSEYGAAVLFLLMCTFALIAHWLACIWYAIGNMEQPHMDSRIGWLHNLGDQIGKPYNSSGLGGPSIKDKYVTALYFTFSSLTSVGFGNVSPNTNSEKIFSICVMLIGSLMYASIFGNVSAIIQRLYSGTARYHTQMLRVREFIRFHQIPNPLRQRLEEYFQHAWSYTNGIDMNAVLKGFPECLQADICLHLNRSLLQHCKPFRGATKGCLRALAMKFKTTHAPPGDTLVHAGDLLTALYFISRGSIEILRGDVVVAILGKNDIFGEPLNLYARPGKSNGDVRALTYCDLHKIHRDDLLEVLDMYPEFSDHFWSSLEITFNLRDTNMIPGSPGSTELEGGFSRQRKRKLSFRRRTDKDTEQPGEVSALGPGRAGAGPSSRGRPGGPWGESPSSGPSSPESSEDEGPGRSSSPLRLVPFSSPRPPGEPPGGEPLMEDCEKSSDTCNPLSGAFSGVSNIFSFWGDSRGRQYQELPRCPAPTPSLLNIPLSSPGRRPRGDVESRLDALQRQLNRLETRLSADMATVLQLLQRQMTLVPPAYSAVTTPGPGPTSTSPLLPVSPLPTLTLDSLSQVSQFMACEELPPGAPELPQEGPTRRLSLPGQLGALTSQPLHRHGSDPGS
protocol_details: Inhibition of human ERG at 3 uM by patch clamp assay
Classify by measured inhibition at 3 µM: 1.0 if it is equal to or exceeds 40%, 0.0 if it is smaller.

Worked examples, 4 compounds total:
COc1cccc(C(=O)Nc2ccc(OCCN3CCN(C(N)=O)CC3)c(-c3ccnn3C)c2)c1 | 0.0
COc1cccc(C(=O)Nc2ccc(OCCNCCO)c(-c3ccnn3C)c2)c1 | 0.0
Cn1nccc1-c1cc(NC(=O)c2ccc(F)c(F)c2)ccc1OCCN1CCOCC1 | 1.0
Cn1nccc1-c1cc(NC(=O)c2cccc(C(F)(F)F)c2)ccc1OCCN1CCC(F)(F)C1 | 1.0

Moving on to another compound below.
Check the entry `COc1cccc(C(=O)Nc2ccc(OCCN3CCN(C(C)=O)CC3)c(-c3ccnn3C)c2)c1` : does inhibition at 3 µM equal or exceed 40%? 0.0

* * *

protocol_details: Ratio of drug level in brain to plasma in Sprague-Dawley rat at 30 mg/kg, po after 24 hrs
Format: ADME, organism-based
Set-up: dose 30 mg/kg, route oral
condition_parameters: read-out: BPR
experimental_endpoint: Kp at 24 h
Write the number on its own, no unit after it.

Which Kp at 24 h value is on record for COc1cccc(C(=O)Nc2ccc(OCCN3CCOCC3)c(-c3ccnn3C)c2)c1 [TEMANOGREL] ? 0.05

* * *

This section presents molecules with their documented inhibition at 1 µM values.
tested_target: hERG (KCNH2) (Homo sapiens, UniProt Q12809)
protocol_details: Inhibition of human ERG at 1 uM by patch clamp assay
Report the figure in % without appending any unit label.

Look over these answered cases.
Cn1nccc1-c1cc(NC(=O)c2ccc(F)cc2F)ccc1OCCN1CCOCC1 | 16
Cn1nccc1-c1cc(NC(=O)c2ccc(C(F)(F)F)cc2)ccc1OCCN1CCCC1 | 66
Cn1nccc1-c1cc(NC(=O)c2ccc(C(F)(F)F)cc2)ccc1OCCN1CCOCC1 | 33

Return inhibition at 1 µM measured with hERG (KCNH2) (Homo sapiens, UniProt Q12809) given this molecule: `Cn1nccc1-c1cc(NC(=O)c2cccc(C(F)(F)F)c2)ccc1OCCN1CCCC1` 80

* * *

protocol_details: Volume of distribution at steady state in Sprague-Dawley rat at 2 mg/kg, iv after 24 hrs by HPLC/MS/MS analysis
Type: ADME, organism-based
Design: dose 2 mg/kg, route intravenous
condition_parameters: in vivo, read-out: Vdss
experimental_endpoint: Vd (L/kg)
Give the number; L/kg is assumed, so skip it.

Here are 2 compounds together with their reported answers.
Cn1nccc1-c1cc(NC(=O)c2ccc(F)cc2F)ccc1OCCN1CCOCC1 | 11.7
Cn1nccc1-c1cc(NC(=O)c2cccc(C(F)(F)F)c2)ccc1OCCN1CCOCC1 | 5.1

Please give the measured Vd for this compound: `COc1cccc(C(=O)Nc2ccc(OCCN3CCOCC3)c(-c3ccnn3C)c2)c1` 29

Form field: reported Vd of `Cn1nccc1-c1cc(NC(=O)c2ccc(C(F)(F)F)cc2)ccc1OCCN1CCCC1` 5.4

* * *

protocol_details: Half life in Sprague-Dawley rat at 10 mg/kg, po by HPLC/MS/MS analysis
Type: ADME, organism-based
Parameters: dose 10 mg/kg, route oral
condition_parameters: in vivo
experimental_endpoint: half-life (h)
Give just the numeric value; h need not be written.

Cn1nccc1-c1cc(NC(=O)c2cccc(C(F)(F)F)c2)ccc1OCCN1CCOCC1 | 1.8
Cn1nccc1-c1cc(NC(=O)c2ccc(C(F)(F)F)cc2)ccc1OCCN1CCCC1 | 2.8
Cn1nccc1-c1cc(NC(=O)c2ccc(F)cc2F)ccc1OCCN1CCOCC1 | 1.5

Then this compound:
I would be grateful if you could share the reported half-life for COc1cccc(C(=O)Nc2ccc(OCCN3CCOCC3)c(-c3ccnn3C)c2)c1 [TEMANOGREL] . 1
